Recorded Papp A→B at 180 min values for a group of compounds are listed next.
experiment: Caco-2 membrane permeability, improved method as used in the following Examples (96-well, 20 to 24 h preincubation); format: in vitro ADME; settings: human, Caco-2, Caco-2 (cm/sec)
Positions of bridges follow the written chain, without caps; N, C: chain ends. Non-standard residues stand in square brackets, D forms with d. Residues, ends and D or L forms follow the SMILES beside them. *: point of attachment. NMeAla(4-thiazolyl) = CN[C@@H](Cc1cscn1)C(=O)O; NMeW = CN[C@@H](Cc1c[nH]c2ccccc12)C(=O)O; NMeF = CN[C@@H](Cc1ccccc1)C(=O)O; NMeL = CN[C@@H](CC(C)C)C(=O)O; NMeA = CN[C@@H](C)C(=O)O; Piperidide = C1CCN(*)CC1; Sar = CNCC(=O)O
Report as a plain number; the unit ×10⁻⁶ cm/s is understood.

>  <Compound>
CC(C)C[C@@H]1NC(=O)[C@H](CC(C)C)N(C)C(=O)C[C@@H](C(=O)N2CCCCC2)NC(=O)[C@H](CC(C)C)N(C)C(=O)CN(C)C(=O)[C@H]([C@@H](C)O)NC(=O)[C@H](Cc2cscn2)N(C)C(=O)[C@H](Cc2ccccc2)N(C)C(=O)[C@H](Cc2ccccc2)NC(=O)[C@H](Cc2ccccc2)N(C)C(=O)[C@H](CC(C)C)N(C)C1=O [pd228] ([NMeL]L[NMeL][NMeF]F[NMeF][NMeAla(4-thiazolyl)]T[Sar][NMeL]D-Piperidide; lactam N-11)

>  <Measure unit>
×10⁻⁶ cm/s

>  <Papp A→B at 180 min>
0.58

$$$$

Query: Papp A→B at 180 min; subject: CC(C)C[C@H]1C(=O)N(C)[C@@H](CC(C)C)C(=O)N(C)[C@@H](Cc2c[nH]c3ccccc23)C(=O)N[C@@H]([C@@H](C)O)C(=O)N(C)[C@@H](C)C(=O)N(C)[C@@H](CC(C)C)C(=O)N[C@H](C(=O)N2CCCCC2)CC(=O)N(C)[C@@H](C)C(=O)N(C)[C@@H](CC(C)C)C(=O)N(C)[C@@H](CC(C)C)C(=O)N[C@@H](C)C(=O)N1C [pd105] ([NMeA][NMeL][NMeL]A[NMeL][NMeL][NMeW]T[NMeA][NMeL]D-Piperidide; lactam N-11)
Reply: 0.28

###

assay: Caco-2 membrane permeability, improved method as used in the following Examples (96-well, 20 to 24 h preincubation); format: in vitro ADME; conditions: human, Caco-2, Caco-2 (cm/sec)
Positions of bridges follow the written chain, without caps; N, C: chain ends. Non-standard residues stand in square brackets, D forms with d. Residues, ends and D or L forms follow the SMILES beside them. ξ: configuration not given here. *: point of attachment. NMePhe(3-Cl) = CN[C@@H](Cc1cccc(Cl)c1)C(=O)O; hhPhe = N[C@@H](CCCc1ccccc1)C(=O)O; NMeF = CN[C@@H](Cc1ccccc1)C(=O)O; NMeL = CN[C@@H](CC(C)C)C(=O)O; ξNMeF = CNC(Cc1ccccc1)C(=O)O; NMeV = CN[C@H](C(=O)O)C(C)C; Piperidide = C1CCN(*)CC1; Sar = CNCC(=O)O; tBu = CC(C)(C)*
Measure name: Papp A→B at 180 min (×10⁻⁶ cm/s)
Report as a plain number; the unit ×10⁻⁶ cm/s is understood.

>  <Molecule>
CC(C)C[C@H]1C(=O)N[C@@H](CCCc2ccccc2)C(=O)N(C)[C@@H](Cc2ccccc2)C(=O)N(C)[C@@H](C(C)C)C(=O)N[C@H](C(=O)N2CCCCC2)CC(=O)N[C@H](C)C(=O)N(C)C(Cc2ccccc2)C(=O)N[C@@H](C(C)C)C(=O)N(C)[C@@H](CC(C)C)C(=O)N[C@@H]([C@@H](C)O)C(=O)N(C)CC(=O)N1C (stereo partly drawn) [pd193] ([dA][ξNMeF]V[NMeL]T[Sar][NMeL][hhPhe][NMeF][NMeV]D-Piperidide; lactam N-11)

>  <Measure name>
Papp A→B at 180 min

>  <Readout number>
1

$$$$

Field: next molecule
Query: Papp A→B at 180 min; subject: CC(C)C[C@H]1C(=O)N[C@@H](COC(C)(C)C)C(=O)N(C)[C@@H](Cc2ccccc2)C(=O)N(C)[C@@H](CC(C)C)C(=O)N[C@H](C(=O)N2CCCCC2)CC(=O)N[C@@H](C)C(=O)N(C)[C@@H](Cc2cccc(Cl)c2)C(=O)N[C@@H](C(C)C)C(=O)N(C)[C@@H](C(C)C)C(=O)N[C@@H]([C@@H](C)O)C(=O)N(C)CC(=O)N1C [pd154] (A[NMePhe(3-Cl)]V[NMeV]T[Sar][NMeL]S(tBu)[NMeF][NMeL]D-Piperidide; lactam N-11)
Reply: 1.4

###

assay: Caco-2 membrane permeability, improved method as used in the following Examples (96-well, 20 to 24 h preincubation); format: in vitro ADME; settings: human, Caco-2, Caco-2
Positions of bridges follow the written chain, without caps; N, C: chain ends. Non-standard residues stand in square brackets, D forms with d. Residues, ends and D or L forms follow the SMILES beside them. *: point of attachment. Gly(NCH2CH2Ph) = O=C(O)CNCCc1ccccc1; NMeF = CN[C@@H](Cc1ccccc1)C(=O)O; NMeL = CN[C@@H](CC(C)C)C(=O)O; NMeAbu = CC[C@H](NC)C(=O)O; Piperidide = C1CCN(*)CC1; tBu = CC(C)(C)*
Measure name: Papp A→B at 180 min

Query: Papp A→B at 180 min; subject: CC[C@H]1C(=O)N[C@@H]([C@@H](C)O)C(=O)N(CCc2ccccc2)CC(=O)N(C)[C@@H](CC(C)C)C(=O)N[C@H](COC(C)(C)C)C(=O)N(C)[C@@H](CC(C)C)C(=O)N(C)[C@@H](CC)C(=O)N[C@H](C(=O)N2CCCCC2)CC(=O)N[C@H](C)C(=O)N(C)[C@@H](Cc2ccccc2)C(=O)N[C@@H](CC(C)C)C(=O)N1C [pd409] ([dA][NMeF]L[NMeAbu]T[Gly(NCH2CH2Ph)][NMeL][dS](tBu)[NMeL][NMeAbu]D-Piperidide; lactam N-11)
Reply: 1.4 ×10⁻⁶ cm/s

###

Recorded Papp A→B at 180 min values for a group of molecules are listed next.
assay: Caco-2 membrane permeability, improved method as used in the following Examples (96-well, 20 to 24 h preincubation); format: in vitro ADME; conditions: human, Caco-2, Caco-2 (cm/sec)
Positions of bridges follow the written chain, without caps; N, C: chain ends. Non-standard residues stand in square brackets, D forms with d. Residues, ends and D or L forms follow the SMILES beside them. *: point of attachment. NMeF = CN[C@@H](Cc1ccccc1)C(=O)O; NMeL = CN[C@@H](CC(C)C)C(=O)O; NMeA = CN[C@@H](C)C(=O)O; Piperidide = C1CCN(*)CC1; dNMeA = CN[C@H](C)C(=O)O

Query: Papp A→B at 180 min; subject: CC(C)C[C@@H]1NC(=O)[C@H](Cc2ccccc2)N(C)C(=O)[C@H](CC(C)C)N(C)C(=O)[C@@H](C)N(C)C(=O)C[C@@H](C(=O)N2CCCCC2)NC(=O)[C@H](CC(C)C)N(C)C(=O)[C@H](Cc2ccccc2)N(C)C(=O)[C@H]([C@@H](C)O)NC(=O)[C@H](Cc2ccccc2)N(C)C1=O [pd223] ([dNMeA][NMeL][NMeF]L[NMeF]T[NMeF][NMeL]D-Piperidide; lactam N-9)
Reply: 1.1 ×10⁻⁶ cm/s

Query: Now the molecule CC[C@H](C)[C@@H]1NC(=O)[C@H](Cc2ccccc2)N(C)C(=O)[C@H](C)N(C)C(=O)C[C@@H](C(=O)N(C)[C@@H](Cc2ccccc2)C(=O)N(C)[C@@H](Cc2ccccc2)C(=O)N[C@@H](C)C(=O)N2CCCCC2)NC(=O)[C@H](CC(C)C)N(C)C(=O)[C@H](Cc2ccccc2)N(C)C(=O)[C@H]([C@@H](C)O)NC(=O)[C@H](CC(C)C)N(C)C(=O)[C@H](CC(C)C)N(C)C(=O)[C@H](C)N(C)C1=O [pd240] ([NMeA][NMeF]I[NMeA][NMeL][NMeL]T[NMeF][NMeL]D[NMeF][NMeF]A-Piperidide; lactam N-10)
Reply: 0.06 ×10⁻⁶ cm/s

###

assay: Caco-2 membrane permeability, improved method as used in the following Examples (96-well, 20 to 24 h preincubation); format: in vitro ADME; settings: human, Caco-2, Caco-2
Starred links: 1 amine or outer side, 2 acyl side, 3 side chain; linkers in the order of their positions; H or OH if unused. Positions of bridges follow the written chain, without caps; N, C: chain ends. Non-standard residues stand in square brackets, D forms with d. Residues, ends and D or L forms follow the SMILES beside them. *: point of attachment. X3 = O=C([C@H](CCCCO)N[*:1])[*:2]; NMeF = CN[C@@H](Cc1ccccc1)C(=O)O; NMeL = CN[C@@H](CC(C)C)C(=O)O; NMeV = CN[C@H](C(=O)O)C(C)C; Piperidide = C1CCN(*)CC1; Sar = CNCC(=O)O; tBu = CC(C)(C)*
Measure name: Papp A→B at 180 min (×10⁻⁶ cm/s)
Report as a plain number; the unit ×10⁻⁶ cm/s is understood.

Query: Papp A→B at 180 min; subject: CC(C)C[C@@H]1NC(=O)[C@H](Cc2ccccc2)N(C)C(=O)[C@@H](CC(C)C)NC(=O)C[C@@H](C(=O)N2CCCCC2)NC(=O)[C@H](C(C)C)N(C)C(=O)[C@H](Cc2ccccc2)N(C)C(=O)[C@H](COC(C)(C)C)NC(=O)[C@H](CC(C)C)N(C)C(=O)CN(C)C(=O)[C@H](CCCCO)NC(=O)[C@H](CC(C)C)N(C)C1=O [pd449] ([dL][NMeF]L[NMeL][X3][Sar][NMeL]S(tBu)[NMeF][NMeV]D-Piperidide; lactam N-11)
Reply: 2

These entries and their values trace back to patent US20200131669A1.
